Measured values drawn from patent US5242938A for this set.

Test system: Staphylococcus aureus (Mb 2983)
assay_notes: Agar diffusion disc assay, Sta 2983
Type: cell-based
condition_context: Staphylococcus aureus, 18 h; @ 20 g/disc; read-out: Inhibition zone diameter, Sta 2983
parameter_measured: zone of inhibition at 20 µg/disc
Write the quantity with the unit trailing the number.

Request: Param item = CNC(=O)O[C@@H]1/C=C(C)/C=C/CNC(=O)/C=C/[C@@H](C)[C@@H](C(C)C)OC(=O)C2=CCCN2C(=O)c2coc(n2)CC(=O)C1 ; retrieve measured zone of inhibition at 20 µg/disc.
Result: 11 mm

Request: Param item = CC1=C\[C@@H](OC(=O)Nc2ccc([N+](=O)[O-])cc2)CC(=O)Cc2nc(co2)C(=O)N2CCC=C2C(=O)O[C@H](C(C)C)[C@H](C)/C=C/C(=O)NC\C=C\1 ; retrieve measured zone of inhibition at 20 µg/disc.
Result: 0 mm

Request: Param item = CC1=C\[C@@H](OC(=O)Nc2cccc(C)c2)CC(=O)Cc2nc(co2)C(=O)N2CCC=C2C(=O)O[C@H](C(C)C)[C@H](C)/C=C/C(=O)NC\C=C\1 ; retrieve measured zone of inhibition at 20 µg/disc.
Result: 0 mm

Request: Param item = CC1=C\[C@@H](OC(=O)Nc2ccccc2)CC(=O)Cc2nc(co2)C(=O)N2CCC=C2C(=O)O[C@H](C(C)C)[C@H](C)/C=C/C(=O)NC\C=C\1 ; retrieve measured zone of inhibition at 20 µg/disc.
Result: 0 mm

Request: Param item = CCC(=O)O[C@@H]1/C=C(C)/C=C/CNC(=O)/C=C/[C@@H](C)[C@@H](C(C)C)OC(=O)C2=CCCN2C(=O)c2coc(n2)CC(=O)C1 ; retrieve measured zone of inhibition at 20 µg/disc.
Result: 12 mm
